# Tested on: SW-620
# METHOD SUMMARY: NCI tumour cell line growth inhibition, 48 h
Activity calls are given as the source filed them. No stated cut-off is given here; in the data, active = GI50 up to about 1.1 µM and inactive = higher.
MEASURED ENDPOINT: GI50

The following compounds have reported results that may help.
COMPOUND	MEASURED ENDPOINT	OBSERVED
CCOC(=O)C(NC(=O)NC(C(=O)OCC)C(=O)OCC)C(=O)OCC	GI50	> 100 µM (inactive)
Nc1nnc2nc(CC(=O)/C=C/c3ccccc3)c(=O)[nH]n12	GI50	> 100 µM (inactive)
CCOc1cc(CC[N+](C)(C)C)c2c(ccc3ccc(OC)c(OC)c32)c1OC	GI50	> 100 µM (inactive)

Ask | Entry under review: C[C@@]1(Br)C[C@@](C)(Cl)[C@@H](Br)CC1/C=C/Cl (stereo not given in full) . Reported GI50?
Reply | 26.9 µM (inactive)

Ask | Entry under review: N#C/C(C(=O)CCl)=C1\Nc2ccccc2O1 . Reported GI50?
Reply | 4.33 µM (inactive)

Ask | Entry under review: CC1C(c2ccccc2O)c2cc3c(cc2OC1N1CCCC1)OCO3 (stereo not given) . Reported GI50?
Reply | 20.8 µM (inactive)

Ask | Entry under review: CSC1=N/C(=C\c2cccs2)C(=O)N1CN1CCCCC1 . Reported GI50?
Reply | 36.9 µM (inactive)

Ask | Entry under review: COc1cc(-c2c3c(cc4c2OCO4)[C@@H](Nc2ccc(-c4ccc(-c5ccc(N[C@@H]6c7cc8c(cc7C(c7cc(OC)c(O)c(OC)c7)[C@H]7C(=O)OC[C@H]67)OCO8)cc5)cc4)cc2)[C@H]2COC(=O)[C@@H]2C3)cc(OC)c1O (stereo not given in full) . Reported GI50?
Reply | 2.7 µM (inactive)

Ask | Entry under review: CCOC(=O)c1cccn1S(=O)(=O)c1cc(Cl)ccc1NC(=O)CC . Reported GI50?
Reply | > 100 µM (inactive)

Ask | Entry under review: CC(C)OC(=O)NNc1c(Cl)cc(Cl)cc1Cl . Reported GI50?
Reply | > 100 µM (inactive)

Ask | Entry under review: O=C(c1ccccn1)c1nnn2ccccc12 . Reported GI50?
Reply | > 100 µM (inactive)

Ask | Entry under review: [N-]=[N+]=C(C(=O)CN1CCCC1=O)S(=O)(=O)c1ccccc1 . Reported GI50?
Reply | > 100 µM (inactive)

Ask | Entry under review: N#Cc1ccc(C2OCC3CC=CCC3CO2)cc1 (stereo not given) . Reported GI50?
Reply | > 100 µM (inactive)

Ask | Entry under review: Nc1ccccc1/C=C\c1ccccc1 . Reported GI50?
Reply | > 100 µM (inactive)

Ask | Entry under review: CCOc1ccc(/N=N/c2c(-c3ccccc3)nn(C(=O)CC(=O)Nc3cccc(C)c3)c2-c2ccccc2)cc1 . Reported GI50?
Reply | > 100 µM (inactive)

---

# System: HL-60
# METHOD SUMMARY: NCI tumour cell line growth inhibition, 48 h
Active and inactive are the calls of the source. No stated cut-off is given here; in the data, active = GI50 up to about 1.1 µM and inactive = higher.
MEASURED ENDPOINT: GI50

>>> print(df.to_string())
                                   molecule            observed
0  COc1cccc(N2C(=O)C3c4[nH]c5ccc(C)cc5c4C4CCC(C(C)(C)C)CC4C3C2=O)c1 (stereo not drawn)  1.95 µM (inactive)

Ask | Entry under review: CCC(C)COC(=O)c1ccc(/N=C\c2ccc(/C=N/c3ccc(C(=O)OCC(C)CC)cc3)cc2)cc1 (stereo not drawn) . Reported GI50?
Reply | > 100 µM (inactive)

Ask | Entry under review: C=CCN1C(=O)CS/C1=N\NC(=O)c1c(C)nc2sccn12 . Reported GI50?
Reply | > 100 µM (inactive)

---

# Test system: NCI-H460
# METHOD SUMMARY: NCI tumour cell line growth inhibition, 48 h
The source made the active and inactive calls. No stated cut-off is given here; in the data, active = GI50 up to about 1.1 µM and inactive = higher.
Select the correct class. Options are YES for active, NO for inactive and nothing else.

Answered cases to consult:
>>> print(df.to_string())
                                   compound  experimental_system  class_assignment
0      C[S+](C)CC(=O)c1ccc2c(c1)Sc1ccccc1O2             NCI-H460                NO
1  CC1=CC2c3cccc4[nH]cc(c34)CC2N(C)C1 (stereo not drawn)             NCI-H460                NO
2  N#C[BH2-][n+]1cn(C2CC(O)C(COP(=O)(O)OC3CC(n4ccc(N)nc4=O)OC3CO)O2)c2nc(N)[nH]c(=O)c21 (stereo not drawn)             NCI-H460                NO
3  O=C1OCC2(CO1)CC1C=CC2C1 (stereo not drawn)             NCI-H460                NO
4  O=C1C2=C(c3ccccc31)C(c1cccc(Cl)c1)NC(S)=N2 (stereo not drawn)             NCI-H460                NO
5  CCNC1=C(NC(=O)c2ccc(F)cc2)C(=O)c2ccccc2C1=O             NCI-H460                NO

Ask | Assay result, entry O=C(O)CCSC(=S)Nc1cccc(F)c1 — outcome?
Reply | NO

Ask | Assay result, entry CCOC(=O)c1cccn1S(=O)(=O)c1cc(Cl)ccc1NC(=O)CC — outcome?
Reply | NO

Ask | Assay result, entry CCc1c(O)c(O)c(C(C)=O)c2c(O)c(-c3c(C)cc4c(CC)c(O)c(O)c(C(C)=O)c4c3O)c(C)cc12 — outcome?
Reply | NO

Ask | Assay result, entry CN1CCN(CCCBr)CC1 — outcome?
Reply | NO

Ask | Assay result, entry Nc1ccn(C2OC(COP(=O)(O)OCC3OC(n4cc(F)c(=O)[nH]c4=O)CC3O)C(O)C2O)c(=O)n1 (stereo not drawn) — outcome?
Reply | YES

Ask | Assay result, entry Cc1ccc(NC(=O)CSc2nc(C)nc3c2sc(=S)n3-c2ccccc2)cc1 — outcome?
Reply | NO

Ask | Assay result, entry CC(=O)C1C(=O)NC(=O)C1=O (stereo not drawn) — outcome?
Reply | NO

Ask | Assay result, entry COc1cc2c3c(c1OC)-c1c(ccc4c1OCO4)CC3(C#N)N(C(=O)c1ccccc1)CC2 (stereo not drawn) — outcome?
Reply | NO

---

Measured GI50 of individual entries
# System: 786-0
# METHOD SUMMARY: NCI tumour cell line growth inhibition, 48 h
The source made the active and inactive calls. Cut-off read from the data, not from the text of the source: active = GI50 up to about 1.1 µM and inactive = higher.

The following molecules have reported results that may help.
In [3]: df
Out[3]:
                                   molecule  experimental_system             observed
0  CCNC1=C(NC(=O)c2ccc(F)cc2)C(=O)c2ccccc2C1=O                786-0  > 100 µM (inactive)
1                CO/C(N)=C(C#N)/N=C/c1cccs1                786-0  > 100 µM (inactive)
2  CC(C)(C)OC(=O)NCCC1CN(C(=O)c2ccccc2)c2ccccc21 (centres undefined)                786-0   35.3 µM (inactive)
3        O=C(O)c1cc(=O)c2c([nH]c3ccccc32)s1                786-0  > 100 µM (inactive)
4    Cn1c(=O)c(NC(=O)C(Cl)(Cl)Cl)nc2ccccc21                786-0  > 100 µM (inactive)

Ask | Entry under review: COc1ccc(C(OCC2OC(n3cc(C)c(=O)[nH]c3=O)CC2n2cc(Cn3cc(Cl)c(=O)[nH]c3=O)nn2)(c2ccccc2)c2ccccc2)cc1 (centres undefined) . Reported GI50?
Reply | > 100 µM (inactive)

Ask | Entry under review: CC1=CCC2(C#N)CCC1C2=O (centres undefined) . Reported GI50?
Reply | > 100 µM (inactive)

Ask | Entry under review: O=C1/C(=C/c2ccc(O)c([N+](=O)[O-])c2)CCC/C1=C\c1ccc(O)c([N+](=O)[O-])c1 . Reported GI50?
Reply | 11.5 µM (inactive)

Ask | Entry under review: O=C1C(Cl)C(c2cccc(Cl)c2)N1c1ccc(-n2c(S)nc3ccccc3c2=O)cc1 (centres undefined) . Reported GI50?
Reply | 19 µM (inactive)

---

# Tested on: A549
# METHOD SUMMARY: NCI tumour cell line growth inhibition, 48 h
The source made the active and inactive calls. Cut-off read from the data, not from the text of the source: active = GI50 up to about 1.1 µM and inactive = higher.
Measured GI50 of individual entries

Ask | Entry under review: Nc1ncc2c(n1)-c1ccccc1OC2 . Reported GI50?
Reply | > 100 µM (inactive)

Ask | Entry under review: NC(=O)N/N=C(/CC1C(=O)Oc2ccccc21)c1ccccc1O (centres undefined) . Reported GI50?
Reply | > 100 µM (inactive)

Ask | Entry under review: Cc1cn(C2CC3C(COCN3O)O2)c(=O)[nH]c1=O (centres undefined) . Reported GI50?
Reply | > 100 µM (inactive)

Ask | Entry under review: Cc1c(C)c(C)c(Cn2[nH]c(=O)n(C)c2=O)c(C)c1C . Reported GI50?
Reply | > 100 µM (inactive)

Ask | Entry under review: C[N+](C)(C)CCCSc1nc2ccccc2[nH]1 . Reported GI50?
Reply | > 100 µM (inactive)
